- System: astro (control astrocytes)
- assay.text: Drug repurposing screens with cells derived from glioblastoma tumor samples (AID 1345199); further: on the % scale 0 is the no-effect control and ±100 the full control effect; nearly all actives have a fitted effect of over 40% in size
- run.parameters: viability, ATP luminescence, 48 h; series mostly up to 45.9 µM
Inconclusive results are not listed. The source made the active and inactive calls. The call rests on the fitted dose curve; in most records, active means well fitted inhibition curve with a large enough effect; inconclusive means small, poorly fitted or top-dose-only effect; inactive means flat fitted curve, though single readings scatter.
Please reply with one of these outcomes: True for active, False for inactive

>>> df
                                   compound  target_or_test_system  discrete_label
0  OCC(CO)N[C@H]1C[C@](O)(CO)[C@@H](O)[C@H](O)[C@H]1O                  astro           False

Exam item: Called result for Cc1cc2c(cc1S(N)(=O)=O)S(=O)(=O)CCC2
Marked response: False

Exam item: Called result for [O-][n+]1cccc(CO)c1
Marked response: False

Exam item: Called result for O=C1NS(=O)(=O)c2ccccc21
Marked response: False

Exam item: Called result for COc1ccc2[nH]c(S(=O)Cc3ncc(C)c(OC)c3C)nc2n1 (stereo unspecified)
Marked response: False

Exam item: Called result for N[C@H]1C(O)O[C@H](CO)[C@@H](O)[C@@H]1O (stereo partly specified)
Marked response: False

Exam item: Called result for NS(=O)(=O)c1cc2c(cc1C(F)(F)F)NC(Cc1ccccc1)NS2(=O)=O (stereo unspecified)
Marked response: False

----------
- System: MKL-1
- assay.text: qHTS assay to identify novel small-molecules to repurpose for Merkel cell carcinoma treatment (AID 1296009); further: on the % scale 0 is the no-effect control and ±100 the full control effect; nearly all actives have a fitted effect of over 60% in size
- run.parameters: MCC and control cell lines, CellTiter-Glo viability, 72 h; series mostly up to 46 µM
Records with an inconclusive call do not appear. Activity calls are given as the source filed them. Calls follow the shape of the dose curve; as a rule, active = well fitted inhibition curve with a large enough effect; inconclusive = small, poorly fitted or top-dose-only effect; inactive = flat fitted curve, though single readings scatter.
reported.endpoint: outcome

In [3]: df
Out[3]:
                             compound  target_or_test_system       val
0  CCN(CC)CCSC(=O)C(c1ccccc1)c1ccccc1                  MKL-1  inactive
1                      O=Cc1ccccc1C=O                  MKL-1  inactive
2                O=c1cc[nH]c(=S)[nH]1                  MKL-1  inactive
3        Cc1c(Cl)cccc1Nc1ccccc1C(=O)O                  MKL-1  inactive
4                         COc1ccccc1O                  MKL-1  inactive

Exam item: Can you share its outcome? I mean this compound: O=C(O)CC(O)C(=O)O (stereo not drawn)
Marked response: inactive

Exam item: Can you share its outcome? I mean this compound: CC1(C)OC(=O)NC1=O
Marked response: inactive

Exam item: Can you share its outcome? I mean this compound: O=C1NS(=O)(=O)c2ccccc21
Marked response: inactive

----------
- System: Hek293T
- assay.text: Primary qHTS to identify gynecologic anti-cancer compounds using libraries of approved drugs and bioactive compounds (AID 1345084); further: on the % scale 0 is the no-effect control and ±100 the full control effect; nearly all actives have a fitted effect of over 55% in size
- run.parameters: Gynecologic cancer cell panel viability, ATPlite luminescence, 48 h, control line for the selectivity index; series mostly up to 57.5 µM
Results filed as inconclusive are left out. Activity calls are given as the source filed them. The call rests on the fitted dose curve; in most records, active means well fitted cell-killing curve with a large enough effect; inconclusive means small, poorly fitted or top-dose-only effect, or effect the other way; inactive means flat fitted curve, though single readings scatter.
reported.endpoint: activity change, negative = cytotoxicity

                                   compound       val
0                         CCCOC(=O)c1ccccc1  inactive
1  NC(=O)c1ncn([C@@H]2O[C@H](CO)[C@@H](O)[C@H]2O)n1  inactive
2  CCN(CC)CCNC(C(=O)OCCC(C)C)c1ccccc1 (stereo not given)  inactive
3  CN1[C@@H]2CC(OC(=O)[C@H](CO)c3ccccc3)C[C@H]1[C@@H]1O[C@@H]12 (stereo not given in full)  inactive

Exam item: Can you share its activity change, negative = cytotoxicity? I mean this compound: O=C1O[C@H](CO)[C@@H](O)[C@H](O)[C@H]1O
Marked response: inactive

Exam item: Can you share its activity change, negative = cytotoxicity? I mean this compound: C[C@@H]1CN(c2c(F)c(F)c3c(=O)c(C(=O)O)cn(C4CC4)c3c2F)C[C@H](C)N1
Marked response: inactive

Exam item: Can you share its activity change, negative = cytotoxicity? I mean this compound: O=S(=O)(O)NC1CCCCC1
Marked response: inactive

Exam item: Can you share its activity change, negative = cytotoxicity? I mean this compound: CCCCN1CCCC[C@H]1C(=O)Nc1c(C)cccc1C
Marked response: inactive

Exam item: Can you share its activity change, negative = cytotoxicity? I mean this compound: COc1ccccc1O
Marked response: inactive

Exam item: Can you share its activity change, negative = cytotoxicity? I mean this compound: CC1CC(OC(=O)C(O)c2ccccc2)CC(C)(C)N1C (stereo not given)
Marked response: inactive

Exam item: Can you share its activity change, negative = cytotoxicity? I mean this compound: CC[C@@]1(c2ccccc2)NC(=O)N(C)C1=O
Marked response: inactive

Exam item: Can you share its activity change, negative = cytotoxicity? I mean this compound: CCCn1cnc2c1c(=O)n(CCCCC(C)=O)c(=O)n2C
Marked response: inactive

----------
- assay.text: Cell Viability - LYMP1-003 - Assay at 24 hr (AID 963)
- run.parameters: LYMP1-003 lymphoblastoid cell viability; series mostly up to 92.2 µM
Active and inactive are the calls of the source. The call rests on the fitted dose curve; in most records, active means well fitted cell-killing curve with a large enough effect; inconclusive means small, poorly fitted or top-dose-only effect; inactive means flat fitted curve, though single readings scatter.
Please reply with one of these outcomes: 1 = active, -1 = inactive

                             smiles_code  discrete_label
0         CN(C)CCC=C1c2ccccc2CCc2ccccc21              -1
1           Nc1ccc(S(=O)(=O)Nc2nccs2)cc1              -1
2                            COc1ccccc1O              -1
3                  CCCCOC(=O)c1ccc(O)cc1              -1
4  Cc1cc(CC(=O)O)n(C)c1C(=O)c1ccc(Cl)cc1              -1
5        O=C1O[C@H]([C@@H](O)CO)C(O)=C1O              -1
6                  CC12CCC(CC1)C(C)(C)O2              -1
7        CC1(C)[C@@H]2CC[C@@]1(C)C(=O)C2              -1

Exam item: Called result for Cc1c(O)cccc1C(=O)N[C@@H](CSc1ccccc1)[C@H](O)CN1C[C@H]2CCCC[C@H]2C[C@H]1C(=O)NC(C)(C)C
Marked response: 1

Exam item: Called result for NCCNCCNCCNCCN
Marked response: -1

Exam item: Called result for Oc1cccc(O)c1
Marked response: -1

----------
- target.or.test.system: Phosphoglycerate kinase, glycosomal (Trypanosoma brucei brucei)
- assay.text: qHTS Validation Assay to Find Inhibitors of Phosphoglycerate Kinase (AID 504547);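 further: control wells lack PGK and mark full inhibition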
- run.parameters: enzymatic PGK inhibition, coupled luminescence read-out; series mostly up to 57.5 µM
Calls of active or inactive are those of the source. Calls come from the whole dose curve; as a rule, active = well fitted inhibition curve with a large enough effect; inconclusive = small, poorly fitted or top-dose-only effect; inactive = flat fitted curve, though single readings scatter.
reported.endpoint: outcome

Some solved entries appear below for comparison.
>>> df
                                   compound                     target_or_test_system       val
0          CCN(CC)CCNC(=O)c1cc(Cl)c(N)cc1OC  Phosphoglycerate kinase, glycosomal (Trypanosoma brucei brucei)  inactive
1  CCN(CC)CCCC(C)Nc1c2ccc(Cl)cc2nc2ccc(OC)cc12 (centres undefined)  Phosphoglycerate kinase, glycosomal (Trypanosoma brucei brucei)  inactive
2  CNC(=O)Oc1ccc2c(c1)[C@]1(C)CCN(C)[C@@H]1N2C  Phosphoglycerate kinase, glycosomal (Trypanosoma brucei brucei)  inactive
3  CC(=O)OCC(=O)[C@@]1(O)CC[C@H]2[C@@H]3CCC4=CC(=O)CC[C@]4(C)[C@H]3C(=O)C[C@@]21C  Phosphoglycerate kinase, glycosomal (Trypanosoma brucei brucei)  inactive
4                       Nc1cc(=O)[nH]c(N)n1  Phosphoglycerate kinase, glycosomal (Trypanosoma brucei brucei)  inactive

Exam item: Can you share its outcome? I mean this compound: CC[C@H]1CN2CCc3cc(OC)c(OC)cc3[C@@H]2C[C@@H]1C[C@H]1NCCc2cc(OC)c(OC)cc21
Marked response: inactive

Exam item: Can you share its outcome? I mean this compound: C#CCN(C)Cc1ccccc1
Marked response: inactive

Exam item: Can you share its outcome? I mean this compound: O=C1N=C(O)CN1/N=C/c1ccc(-c2ccc([N+](=O)[O-])cc2)o1
Marked response: inactive

Exam item: Can you share its outcome? I mean this compound: CC(CN(C)C)CN1c2ccccc2CCc2ccccc21 (centres undefined)
Marked response: inactive

----------
In this section we review reported activation values for a set of compounds.
- assay.text: qHTS assay for small molecule activators of the p53 signaling pathway (AID 651743); further: % of control where 0% means no effect
- run.parameters: HCT-116 p53RE-bla, beta-lactamase FRET ratio, 16 h; stronger effect = higher value
Results filed as inconclusive are left out.
API: value field is a number in %; no unit string.

Exam item: Can you share its activation? I mean this compound: COc1ccc(Cl)cc1C(=O)NCCc1ccc(S(=O)(=O)NC(=O)NC2CCCCC2)cc1
Marked response: -6.63

Exam item: Can you share its activation? I mean this compound: CC1(C)[C@@H]2CC[C@@]1(C)C(=O)C2
Marked response: 0.0082
